System: rats
experiment_summary: Respiratory depression by blood gas (pCO2) monitoring in rats
Type: in vivo
protocol_conditions: rat, 0.30 mg/kg i.v., 4 min.
// reported Respiratory Depression % Units Baseline pCO2 for each item listed
recorded_metric: Respiratory Depression % Units Baseline pCO2 (%)

C=CCN1C[C@H](C)N([C@@H](c2ccsc2)c2cccc(O)c2)C[C@H]1C [Compound 5] = 120
C=CCN1C[C@@H](C)N([C@@H](c2ccsc2)c2cccc(O)c2)C[C@@H]1C (racemic) [Compound 1] = 21
C=CCN1C[C@@H](C)N([C@H](c2ccsc2)c2cccc(O)c2)C[C@@H]1C = 0
C=CCN1C[C@@H](C)N([C@@H](c2ccsc2)c2cccc(O)c2)C[C@@H]1C [Compound 3] = 0
C=CCN1C[C@H](C)N([C@@H](c2ccsc2)c2cccc(O)c2)C[C@H]1C (racemic) [Compound 4] = 117
C=CCN1C[C@H](C)N([C@H](c2ccsc2)c2cccc(O)c2)C[C@H]1C = 48

* * *

assayed_target: μ opioid receptor (Rattus norvegicus)
Construct: tissue Pel-Freeze Biological Inc. (Rogers, Ark.); host or cells: rat whole brain membranes
Sequence (P33535 whole entry): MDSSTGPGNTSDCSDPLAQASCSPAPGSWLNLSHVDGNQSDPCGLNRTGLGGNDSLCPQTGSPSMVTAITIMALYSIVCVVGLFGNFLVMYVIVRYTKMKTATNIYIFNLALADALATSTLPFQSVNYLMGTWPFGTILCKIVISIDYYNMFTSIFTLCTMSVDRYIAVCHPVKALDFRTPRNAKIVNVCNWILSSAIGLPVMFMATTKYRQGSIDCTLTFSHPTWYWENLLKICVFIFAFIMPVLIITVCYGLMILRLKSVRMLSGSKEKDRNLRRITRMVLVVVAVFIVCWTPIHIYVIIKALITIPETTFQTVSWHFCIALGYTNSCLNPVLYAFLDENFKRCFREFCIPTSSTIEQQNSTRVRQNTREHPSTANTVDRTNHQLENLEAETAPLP
experiment_summary: Radioligand binding, [3H]DAMGO competition, rat brain membranes
protocol_conditions: rat brain membranes, [3H]DAMGO; read-out: Rat Brain Membrane K1 (nM) μ
recorded_metric: log10 Ki (log10 of the value in nM)

C=CCN1C[C@H](C)N([C@@H](c2ccsc2)c2cccc(O)c2)C[C@H]1C [Compound 5] = -0.12
C=CCN1C[C@@H](C)N([C@@H](c2ccsc2)c2cccc(O)c2)C[C@@H]1C [Compound 3] = 2.82
C=CCN1C[C@@H](C)N([C@H](c2ccsc2)c2cccc(O)c2)C[C@@H]1C [Compound 6] = 1.78
C=CCN1C[C@@H](C)N([C@@H](c2ccsc2)c2cccc(O)c2)C[C@@H]1C (racemic) [Compound 1] = -0.44
C=CCN1C[C@H](C)N([C@@H](c2ccsc2)c2cccc(O)c2)C[C@H]1C (racemic) [Compound 4] = -0.74
C=CCN1C[C@H](C)N([C@H](c2ccsc2)c2cccc(O)c2)C[C@H]1C [Compound 2] = -0.40

* * *

assayed_target: Delta receptor, mouse vas deferens (Mus musculus)
Construct: Mouse vasa deferentia (MVD), CD-1 strain, Harlan, Raleigh, N.C.) were removed from mice; tissue Harlan, Raleigh, N.C; (animals); host or cells: mouse vas deferens, CD-1 strain
Sequence (P32300 whole entry): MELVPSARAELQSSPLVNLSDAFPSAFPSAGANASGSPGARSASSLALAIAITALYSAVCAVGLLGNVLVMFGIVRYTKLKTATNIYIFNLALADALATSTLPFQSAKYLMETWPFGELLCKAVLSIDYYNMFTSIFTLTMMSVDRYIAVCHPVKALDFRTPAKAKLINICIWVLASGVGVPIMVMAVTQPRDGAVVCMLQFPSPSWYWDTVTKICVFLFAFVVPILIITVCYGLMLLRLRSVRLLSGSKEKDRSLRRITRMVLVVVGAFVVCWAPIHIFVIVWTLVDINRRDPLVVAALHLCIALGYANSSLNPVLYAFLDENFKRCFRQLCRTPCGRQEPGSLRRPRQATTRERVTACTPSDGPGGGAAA
experiment_summary: Mouse vas deferens, inhibition of electrically induced contractions, delta
Format: cell-based
protocol_conditions: read-out: Mouse Vas Deferens ED50 (nM) δ
// reported EC50 for each item listed
recorded_metric: EC50 (nM)

C=CCN1C[C@@H](C)N([C@H](c2ccsc2)c2cccc(O)c2)C[C@@H]1C = 282
C=CCN1C[C@@H](C)N([C@@H](c2ccsc2)c2cccc(O)c2)C[C@@H]1C (racemic) [Compound 1] = 30
C=CCN1C[C@H](C)N([C@H](c2ccsc2)c2cccc(O)c2)C[C@H]1C = 14.2
C=CCN1C[C@H](C)N([C@@H](c2ccsc2)c2cccc(O)c2)C[C@H]1C (racemic) [Compound 4] = 58
C=CCN1C[C@H](C)N([C@@H](c2ccsc2)c2cccc(O)c2)C[C@H]1C [Compound 5] = 1.3

* * *

assayed_target: Mu receptor, mouse vas deferens (Mus musculus, UniProt P42866)
Construct: Mouse vasa deferentia (MVD), CD-1 strain, Harlan, Raleigh, N.C.) were removed from mice; tissue Harlan, Raleigh, N.C; (animals); host or cells: mouse vas deferens, CD-1 strain
Sequence (P42866 whole entry): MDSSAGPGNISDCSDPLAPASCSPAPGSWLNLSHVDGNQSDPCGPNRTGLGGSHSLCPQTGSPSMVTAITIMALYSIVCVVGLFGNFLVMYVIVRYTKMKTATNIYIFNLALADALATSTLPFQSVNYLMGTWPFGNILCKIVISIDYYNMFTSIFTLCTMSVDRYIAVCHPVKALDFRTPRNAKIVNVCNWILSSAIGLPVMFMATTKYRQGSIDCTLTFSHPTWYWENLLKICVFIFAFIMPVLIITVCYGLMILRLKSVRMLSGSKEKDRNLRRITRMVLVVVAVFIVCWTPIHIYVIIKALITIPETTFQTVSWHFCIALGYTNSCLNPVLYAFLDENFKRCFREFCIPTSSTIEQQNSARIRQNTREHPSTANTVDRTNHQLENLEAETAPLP
experiment_summary: Mouse vas deferens, inhibition of electrically induced contractions, mu (with TIPP and nor-BNI)
Assay type: cell-based
protocol_conditions: in presence of 3 μM TIPP and 15 nM nor-BNI; read-out: Mouse Vas Deferens ED50 (nM) μ
recorded_metric: EC50 (nM)

C=CCN1C[C@H](C)N([C@H](c2ccsc2)c2cccc(O)c2)C[C@H]1C = 38.8
C=CCN1C[C@@H](C)N([C@@H](c2ccsc2)c2cccc(O)c2)C[C@@H]1C (racemic) [Compound 1] = 881
C=CCN1C[C@H](C)N([C@@H](c2ccsc2)c2cccc(O)c2)C[C@H]1C (racemic) [Compound 4] = 170
C=CCN1C[C@H](C)N([C@@H](c2ccsc2)c2cccc(O)c2)C[C@H]1C [Compound 5] = 79.3
